Test system: CCRF-CEM
Test: NCI tumour cell line growth inhibition, 48 h
The source made the active and inactive calls. Cut-off read from the data, not from the text of the source: active = GI50 up to about 1.1 µM and inactive = higher.
Respond using exactly one of the listed classes: active, inactive

Illustrative cases are given below, each with its answer.
CNC(=O)/C=C/C1=CN2C(=O)c3ccc(C)c(O)c3NC(OC)C2C1 (centres undefined) | active
O=C1OC[C@@H]2[C@@H](O)CCCCCN12 | inactive
CC1CN1C(=O)NCCCCCCNC(=O)N1CC1C (centres undefined) | inactive

Moving on to another molecule below.
Exercise: Hey, what did the test say about CC(C)C1OC(=O)C=C1Sc1ccccc1 (centres undefined) ?
Key: inactive

----------
Tested on: OVCAR-5
Assay: NCI tumour cell line growth inhibition, 48 h
Activity calls are given as the source filed them. No stated cut-off is given here; in the data, active = GI50 up to about 1.1 µM and inactive = higher.
Recorded GI50 by entry

Examples from the recorded data:
C/C(=N\NS(=O)(=O)c1ccc([N+](=O)[O-])cc1)c1ccc[n+]([O-])n1 | 2.63 µM (inactive)
CCSC(=O)N1c2ccc(OC)cc2C=CC1C#N (stereo unspecified) | < 0.00993 µM (active)
COc1cccc(C2=NC(C(C)C)CO2)c1 (stereo unspecified) | > 100 µM (inactive)
CN(O)C(=O)c1ccc(OCc2cccc(Cl)c2)cc1 | > 62.1 µM (inactive)
CNC(=S)N(C)C(=S)Nn1c(=O)c(C)nn(C)c1=S | > 100 µM (inactive)

Exercise: Look at this molecule and give its reported GI50. CCN1C(=O)N2C(OC)c3ccccc3C(Br)C2(OC)C1=O (stereo unspecified)
Key: > 100 µM (inactive)

Exercise: Look at this molecule and give its reported GI50. c1csc(-c2ccsc2-c2ccsc2)c1
Key: > 100 µM (inactive)

Exercise: Look at this molecule and give its reported GI50. O=[N+]([O-])c1ccc(/C=C/c2ccc(/N=N/c3ccc(/C=C/c4ccc([N+](=O)[O-])cc4S(=O)(=O)O)c(S(=O)(=O)O)c3)cc2S(=O)(=O)O)c(S(=O)(=O)O)c1
Key: > 100 µM (inactive)

Exercise: Look at this molecule and give its reported GI50. C=C1CC(Cn2cc(C)c(=O)[nH]c2=O)(c2ccc(-c3ccccc3)cc2)OC1=O (stereo unspecified)
Key: 9.46 µM (inactive)

Exercise: Look at this molecule and give its reported GI50. CC(C)C1OC(=O)C=C1Sc1ccccc1 (stereo unspecified)
Key: > 100 µM (inactive)

Exercise: Look at this molecule and give its reported GI50. O=C1C(Cl)C(c2ccc(O)cc2)N1n1cnc2ccccc2c1=O (stereo unspecified)
Key: > 79.8 µM (inactive)
